Hello, the source for this data is patent US20100249123A1, in case you need it.

// values below are reported melting point

compound: COc1ccc(C(=O)Nc2ccc(C(C)(C)CNC(=O)c3csc4ccccc34)cc2)cc1OC [Example 116]
melting point: 145 to 147 °C

compound: COc1ccc(C(=O)Nc2ccc(C3(CNC(=O)c4cscn4)CCCC3)cc2)cc1OC [Example 29]
melting point: 101 to 104 °C

compound: COc1ccc(C(=O)Nc2ccc(C(C)(C)CNC(=O)c3cc4ccccc4n3C)cc2)cc1OC [Example 108]
melting point: 176 to 178 °C

compound: COc1ccc(C(=O)Nc2cccc(C3(C#N)CCCC3)c2)cc1OC [Example 14]
melting point: 59 to 61 °C

compound: CCOc1ccc(C(=O)Nc2ccc(C(C)(C)C#N)cc2)cc1OCC [Example 160]
melting point: 138 to 140 °C

compound: COc1ccc(C(=O)Nc2ccc(C(C)(C)CNC(=O)CCc3ccccc3)cc2)cc1OC [Example 34]
melting point: 149 to 151 °C

compound: COc1ccc(C(=O)Nc2ccc(C(C)(C)CNC(=O)c3nc4ccc(F)cc4[nH]3)cc2)cc1OC [Example 193]
melting point: 222 to 224 °C

compound: COc1ccc(C(=O)Nc2ccc(C3(CNC(C)=O)CC3)cc2)cc1OC [Example 54]
melting point: 204 to 206 °C

----------
- assay_target: rat follicle stimulating hormone receptor (rFSHR) (Rattus norvegicus)
- Sequence (P20395 18-692): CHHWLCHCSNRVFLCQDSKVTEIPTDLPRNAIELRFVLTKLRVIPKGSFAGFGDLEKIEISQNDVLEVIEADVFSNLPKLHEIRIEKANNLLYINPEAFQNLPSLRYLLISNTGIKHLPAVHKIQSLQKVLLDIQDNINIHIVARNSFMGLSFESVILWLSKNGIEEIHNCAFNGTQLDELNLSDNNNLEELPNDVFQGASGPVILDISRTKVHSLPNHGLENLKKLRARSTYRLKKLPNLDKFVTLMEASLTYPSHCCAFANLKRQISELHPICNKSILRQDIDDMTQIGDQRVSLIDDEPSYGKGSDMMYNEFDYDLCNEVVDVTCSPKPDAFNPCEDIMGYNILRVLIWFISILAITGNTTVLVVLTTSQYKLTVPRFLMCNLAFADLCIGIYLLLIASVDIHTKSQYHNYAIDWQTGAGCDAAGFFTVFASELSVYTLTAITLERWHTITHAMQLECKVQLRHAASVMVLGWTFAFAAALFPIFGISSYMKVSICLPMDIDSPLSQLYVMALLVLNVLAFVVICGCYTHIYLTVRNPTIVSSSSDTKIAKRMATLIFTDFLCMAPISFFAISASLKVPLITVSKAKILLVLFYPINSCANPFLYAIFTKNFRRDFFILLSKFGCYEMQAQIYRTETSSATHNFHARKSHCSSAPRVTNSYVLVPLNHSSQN
- experimental_protocol: Intracellular cAMP measurement (HTRF) assay, antagonism of EC70 of hFSH
- condition_description: HEK293 cells expressing rFSHR, 1 ng/ml hFSH (EC70), read-out: Class (IC50 to antagonise an EC70 of FSH receptors agonist such as hFSH)
pIC50: −log10 of the molar value.
// values below are reported pIC50

compound: COc1ccc(C(=O)Nc2ccc(C(C)(C)CNC(=O)c3ccc4nccn4c3)cc2)cc1OC [Example 190]
assay_target: rat follicle stimulating hormone receptor (rFSHR) (Rattus norvegicus)
pIC50: ≤ 6.00
//
compound: COc1ccc(C(=O)Nc2ccc(C(C)(C)CNC(=O)c3csc4ccccc34)cc2)cc1OC [Example 116]
assay_target: rat follicle stimulating hormone receptor (rFSHR) (Rattus norvegicus)
pIC50: > 6.82
//
compound: COc1ccc(C(=O)Nc2ccc(C(C)(C)CCNC(=O)c3cnc4ccccn34)cc2)cc1OC [Example 194]
assay_target: rat follicle stimulating hormone receptor (rFSHR) (Rattus norvegicus)
pIC50: 6.40 to 6.82
//
compound: COc1ccc(C(=O)Nc2ccc(C(C)(C)CNC(=O)c3cn(C(C)=O)c4ccccc34)cc2)cc1OC [Example 104]
assay_target: rat follicle stimulating hormone receptor (rFSHR) (Rattus norvegicus)
pIC50: 6.00 to 6.40
//
compound: COc1ccc(C(=O)Nc2ccc(C(C)(C)CNC(=O)c3n[nH]c4ccccc34)c(C)c2)cc1OC [Example 109]
assay_target: rat follicle stimulating hormone receptor (rFSHR) (Rattus norvegicus)
pIC50: 6.40 to 6.82
//
compound: COc1ccc(C(=O)Nc2ccc(C(C)(C)CNC(=O)Cc3c[nH]c4ccccc34)cc2)cc1OC [Example 126]
assay_target: rat follicle stimulating hormone receptor (rFSHR) (Rattus norvegicus)
pIC50: 6.40 to 6.82
//
compound: COc1ccc(C(=O)Nc2ccc(C(C)(C)CNC(=O)c3nc4ccc(F)cc4[nH]3)cc2)cc1OC [Example 193]
assay_target: rat follicle stimulating hormone receptor (rFSHR) (Rattus norvegicus)
pIC50: > 6.82
//
compound: COc1ccc(C(=O)Nc2ccc(C(C)(C)CCNC(C)=O)c(-c3cccnc3)c2)cc1OC [Example 221]
assay_target: rat follicle stimulating hormone receptor (rFSHR) (Rattus norvegicus)
pIC50: 6.00 to 6.40
//
compound: CCc1cc(NC(=O)c2ccc(OC)c(OC)c2)ccc1C(C)(C)C#N [Example 133]
assay_target: rat follicle stimulating hormone receptor (rFSHR) (Rattus norvegicus)
pIC50: > 6.82
//
compound: COc1ccc(C(=O)Nc2ccc(C(C)(C)C#N)c(-c3cccs3)c2)cc1OC [Example 206]
assay_target: rat follicle stimulating hormone receptor (rFSHR) (Rattus norvegicus)
pIC50: > 6.82
